Target: NLuc‐A2BR (Homo sapiens)
Construct: expressed in transfected cells
Sequence (P29275 1-332): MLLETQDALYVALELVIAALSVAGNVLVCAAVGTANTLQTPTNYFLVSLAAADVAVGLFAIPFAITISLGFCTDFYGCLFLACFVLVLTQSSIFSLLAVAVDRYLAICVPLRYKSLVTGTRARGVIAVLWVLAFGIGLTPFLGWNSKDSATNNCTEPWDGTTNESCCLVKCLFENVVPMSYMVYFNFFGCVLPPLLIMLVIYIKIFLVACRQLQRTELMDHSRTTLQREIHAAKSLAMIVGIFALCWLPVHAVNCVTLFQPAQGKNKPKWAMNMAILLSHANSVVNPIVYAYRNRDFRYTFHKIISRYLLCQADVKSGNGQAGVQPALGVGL
Assay: NanoBRET competition binding against 50 nM PSB603‐BY630 in HEK293G cells expressing NLuc‐A2BR
PARAMETER MEASURED: pIC50
Convention used: pIC50 is expressed as -log10 of the molar concentration.

CCCn1c(=O)c2[nH]c(-c3ccc(OCC(=O)Nc4ccc(C(C)=O)cc4)cc3)nc2n(CCC)c1=O [MRS1706] yielded pIC50 of 7.44

Lab book: pIC50 of COc1ccc(CCCn2ncc3c2nc(N)n2nc(-c4ccco4)nc32)cc1 [SCH442416] noted as 5.02

compound O[C@H]1CC[C@H](Nc2nc(-c3ccccc3)nc3[nH]ccc23)CC1 [SLV320] , pIC50 observed: 5.19
